Tested on: Pseudomonas aeruginosa
experimental-details: In vitro antibacterial activity was determined against ceftazidime- resistant Pseudomonas aeruginosa AKR17.
Format: functional
Some compounds, each annotated with its measured MIC.
The response must be a number in µg/mL with no trailing unit.

IN: I am curious: what MIC value has been reported for C[C@@H](O)[C@H]1C(=O)N2C(C(=O)O)=C(S[C@@H]3CN[C@@H](c4ccc(CN)cc4)C3)[C@H](C)[C@H]12 ?
OUT: 3.13

IN: I am curious: what MIC value has been reported for C[C@@H](O)[C@H]1C(=O)N2C(C(=O)O)=C(S[C@@H]3CN[C@H](c4ccc(CN)cc4)C3)[C@H](C)[C@H]12 ?
OUT: 6.25

* * *

Test system: Pseudomonas aeruginosa
experimental-details: In vitro antibacterial activity was determined against ceftazidime- resistant Pseudomonas aeruginosa AKR17.
Format: functional
recorded-metric: MIC (µg/mL)
The response must be a number in µg/mL with no trailing unit.

IN: I am curious: what MIC value has been reported for C[C@@H](O)[C@H]1C(=O)N2C(C(=O)O)=C(S[C@@H]3CN[C@H](CNc4ccccc4)C3)[C@H](C)[C@H]12 ?
OUT: 25

IN: I am curious: what MIC value has been reported for C[C@@H](O)[C@H]1C(=O)N2C(C(=O)O)=C(S[C@@H]3CN[C@H](CNc4ccc(CN)cc4)C3)[C@H](C)[C@H]12 ?
OUT: 12.5

IN: I am curious: what MIC value has been reported for C[C@@H](O)[C@H]1C(=O)N2C(C(=O)O)=C(S[C@@H]3CN[C@@H](CSc4ccc(CN)cc4)C3)[C@H](C)[C@H]12 ?
OUT: 12.5

IN: I am curious: what MIC value has been reported for C[C@@H](O)[C@H]1C(=O)N2C(C(=O)O)=C(SCCNC=N)C[C@H]12.O ?
OUT: 3.13

Now turn to the next compound.
IN: I am curious: what MIC value has been reported for C[C@@H](O)[C@H]1C(=O)N2C(C(=O)O)=C(S[C@@H]3CN[C@H](Cc4ccc(CN)cc4)C3)[C@H](C)[C@H]12 ?
OUT: 6.25

* * *

Tested on: Pseudomonas aeruginosa
experimental-details: In vitro antibacterial activity was determined against ceftazidime- resistant Pseudomonas aeruginosa AKR17.
Type: functional
Some compounds, each annotated with its measured MIC.

// solved cases for MIC follow
IN: I am curious: what MIC value has been reported for C[C@@H](O)[C@H]1C(=O)N2C(C(=O)O)=C(S[C@@H]3CN[C@H](COc4ccccc4)C3)[C@H](C)[C@H]12 ?
OUT: > 50 µg/mL

IN: I am curious: what MIC value has been reported for CN[C@H](CC(C)C)C(=O)N[C@H]1C(=O)N[C@@H](CC(N)=O)C(=O)N[C@H]2C(=O)N[C@H]3C(=O)N[C@H](C(=O)N[C@H](C(=O)O)c4cc(O)cc(O)c4-c4cc3ccc4O)[C@H](O)c3ccc(c(Cl)c3)Oc3cc2cc(c3O[C@@H]2O[C@H](CO)[C@@H](O)[C@H](O)[C@H]2O[C@H]2C[C@](C)(N)[C@H](O)[C@H](C)O2)Oc2ccc(cc2Cl)[C@H]1O ?
OUT: > 100 µg/mL

Further cases:
IN: I am curious: what MIC value has been reported for C[C@@H](O)[C@H]1C(=O)N2C(C(=O)O)=C(S[C@@H]3CN[C@@H](Cc4ccc(CN)cc4)C3)[C@H](C)[C@H]12 ?
OUT: > 100 µg/mL
